System: ovariectomized rats
Assay Summary: ovariectomized rat model of postmenopausal hyperlipidemia (serum cholesterol, uterine weight, uterine eosinophil peroxidase)
Format: in vivo
Experimental Context: ovariectomized rats, 0.1 mg/kg PO
Where a name gives a salt, the structure may show the parent alone.
Quantity Kind: Uterine Weight % Inc (increase versus the ovariectomized controls) (%)

[
  {
    "Compound": "COc1cccc(-c2ccc3cc(OC)ccc3c2Oc2ccc(OCCN3CCCCC3)cc2)c1.Cl",
    "Tgt": "ovariectomized rats",
    "Unit Tag": "%",
    "Result Number": 21.9
  }
]

A = O=C(c1ccc(OCCN2CCCCC2)cc1)c1c(-c2ccc(O)cc2)sc2cc(O)ccc12 [Raloxifene, hydrochloride, reference compound]
B = Cl.Oc1cccc(-c2ccc3cc(O)ccc3c2Oc2ccc(OCCN3CCCCC3)cc2)c1
Query :: Which value of Uterine Weight % Inc (increase versus the ovariectomized controls) is greater, the one for A or the one for B ? Response format: the label of the selected entry.
Result :: A
